The following compounds have recorded Ki on Mu-type opioid receptor (Mus musculus).
Sequence (P42866 whole entry): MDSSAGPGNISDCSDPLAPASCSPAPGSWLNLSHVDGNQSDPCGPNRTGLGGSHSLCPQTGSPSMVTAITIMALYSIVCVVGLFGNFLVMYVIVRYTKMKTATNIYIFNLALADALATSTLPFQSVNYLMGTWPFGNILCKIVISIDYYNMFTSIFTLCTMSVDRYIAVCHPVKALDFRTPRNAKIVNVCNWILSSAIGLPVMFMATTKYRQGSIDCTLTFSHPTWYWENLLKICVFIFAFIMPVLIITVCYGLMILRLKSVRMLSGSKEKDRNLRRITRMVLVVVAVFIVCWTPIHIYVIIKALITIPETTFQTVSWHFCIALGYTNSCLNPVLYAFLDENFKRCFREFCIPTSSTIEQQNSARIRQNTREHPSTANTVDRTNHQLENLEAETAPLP
Quick reminder: number only, in nM, skip the unit.

Previously resolved entries follow.
{"record-smiles": "O=C(Cc1cc2ccccc2cn1)N[C@H]1CC[C@@]2(O)[C@H]3Cc4ccc(O)c5c4[C@@]2(CCN3CC2CC2)[C@H]1O5", "assayed-target": "Mu-type opioid receptor (Mus musculus)", "units-of-measure": "nM", "Ki": 1.2}
{"record-smiles": "O=C(N[C@H]1CC[C@@]2(O)[C@H]3Cc4ccc(O)c5c4[C@@]2(CCN3CC2CC2)[C@H]1O5)c1ncc2ccccc2n1", "assayed-target": "Mu-type opioid receptor (Mus musculus)", "units-of-measure": "nM", "Ki": 1.11}
{"record-smiles": "O=C(N[C@H]1CC[C@@]2(O)[C@H]3Cc4ccc(O)c5c4[C@@]2(CCN3CC2CC2)[C@H]1O5)c1nc(Cl)c2ccccc2c1O", "assayed-target": "Mu-type opioid receptor (Mus musculus)", "units-of-measure": "nM", "Ki": 0.73}
{"record-smiles": "N#Cc1nc(C(=O)N[C@H]2CC[C@@]3(O)[C@H]4Cc5ccc(O)c6c5[C@@]3(CCN4CC3CC3)[C@H]2O6)cc2ccccc12", "assayed-target": "Mu-type opioid receptor (Mus musculus)", "units-of-measure": "nM", "Ki": 0.99}

Moving on to another compound below.
Prompt: Answer with Ki of O=C(CCc1cc2ccccc2cn1)N[C@H]1CC[C@@]2(O)[C@H]3Cc4ccc(O)c5c4[C@@]2(CCN3CC2CC2)[C@H]1O5 measured for Mu-type opioid receptor (Mus musculus).
Completion: 0.68
